The reader will find log10(Ki) measurements below, all made with human CB2 receptors (Homo sapiens (Human)).
Sequence (P34972 whole entry): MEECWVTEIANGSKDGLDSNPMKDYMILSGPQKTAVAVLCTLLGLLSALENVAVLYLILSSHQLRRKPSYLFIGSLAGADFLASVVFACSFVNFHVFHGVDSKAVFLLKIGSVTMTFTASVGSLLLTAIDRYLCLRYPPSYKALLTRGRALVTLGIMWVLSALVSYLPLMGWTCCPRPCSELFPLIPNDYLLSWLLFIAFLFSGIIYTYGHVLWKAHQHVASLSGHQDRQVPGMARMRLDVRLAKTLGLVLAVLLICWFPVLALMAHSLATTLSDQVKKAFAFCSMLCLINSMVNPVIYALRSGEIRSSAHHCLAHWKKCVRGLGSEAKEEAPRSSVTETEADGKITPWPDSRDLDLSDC
property: log10(Ki) (log10 of the value in nM)

>>> df
                                   compound  observed_result
0  CC(C)(O)COc1ccc(C(F)(F)F)cc1C(=O)/N=c1\sc2ccncc2n1CC1CCC1 [Example 26]             0.40
1  CCCCn1cc(C(C)(C)C)s/c1=N\C(=O)c1cc(Cl)ccc1OCC(N)=O [Example 2]             0.49
2  CCCCn1cc(C(C)(C)C)s/c1=N\C(=O)c1cc(C(F)(F)F)ccc1NNC(=O)c1cccnc1 [Example 37]             0.20
3  CN1CCC[C@H]1COc1ccc(C(F)(F)F)cc1C(=O)/N=c1\sc(C(C)(C)C)cn1CC1(O)CCC1 [Example 11]             1.98
4  CC(C)Cn1cc(C(C)(C)C)s/c1=N\C(=O)c1cc(C(F)(F)F)ccc1OCC1CCOC1 (stereo not drawn) [Example 8]             0.70
5  CCCCn1cc(C(C)(C)C)s/c1=N\C(=O)c1cc(C(F)(F)F)ccc1ONC(C)(C)C [Example 23]             0.83
